TARGET: Transient receptor potential cation channel subfamily V member 1 (Homo sapiens)
ASSAY: Effective concentration against human transient receptor potential vanilloid 1 receptor (n=6); Inactive
ASSAY METRIC: EC50

Could you please provide reported EC50 for O=C(Nc1ccc(C(F)(F)F)cc1)NC1CCN(c2ncccc2C(F)(F)F)C1 (stereo unspecified) ? Thanks!
> 10 µM

* * *

TARGET: Transient receptor potential cation channel subfamily V member 1 (Homo sapiens, UniProt Q8NER1)
Sequence (Q8NER1 whole entry): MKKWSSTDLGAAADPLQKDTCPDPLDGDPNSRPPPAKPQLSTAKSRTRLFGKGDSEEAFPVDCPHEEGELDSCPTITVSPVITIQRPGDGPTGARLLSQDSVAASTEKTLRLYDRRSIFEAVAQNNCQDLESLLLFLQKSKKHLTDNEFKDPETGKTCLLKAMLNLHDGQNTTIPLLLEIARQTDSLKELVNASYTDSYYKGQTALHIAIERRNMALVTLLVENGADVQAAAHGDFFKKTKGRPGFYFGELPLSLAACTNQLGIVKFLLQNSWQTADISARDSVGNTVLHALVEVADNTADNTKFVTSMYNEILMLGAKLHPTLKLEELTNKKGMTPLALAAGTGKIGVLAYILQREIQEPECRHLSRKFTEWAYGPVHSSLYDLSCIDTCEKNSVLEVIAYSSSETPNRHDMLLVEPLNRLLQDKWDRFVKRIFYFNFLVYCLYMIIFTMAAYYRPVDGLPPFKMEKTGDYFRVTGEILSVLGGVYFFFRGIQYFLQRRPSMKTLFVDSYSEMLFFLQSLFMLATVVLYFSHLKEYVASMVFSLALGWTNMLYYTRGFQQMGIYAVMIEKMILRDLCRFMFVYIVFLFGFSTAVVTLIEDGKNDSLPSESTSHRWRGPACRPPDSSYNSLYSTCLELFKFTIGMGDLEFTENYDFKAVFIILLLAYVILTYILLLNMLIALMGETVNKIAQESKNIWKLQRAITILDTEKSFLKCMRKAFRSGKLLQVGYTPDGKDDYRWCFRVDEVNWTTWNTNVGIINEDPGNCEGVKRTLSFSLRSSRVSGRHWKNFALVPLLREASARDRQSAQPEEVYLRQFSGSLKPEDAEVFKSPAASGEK
ASSAY: Inhibition of human transient receptor potential vanilloid 1 receptor (n=3)
ASSAY METRIC: pIC50
pIC50 is defined as minus the log10 of a concentration measured in mol/L.

Could you please provide reported pIC50 for "O=C(Nc1cc2ccccc2cn1)N1CCN(c2ncccc2C(F)(F)F)CC1" ? Thanks!
6.44

Could you please provide reported pIC50 for "Cc1cccnc1N1CCN(C(=O)Nc2ccc(C(F)(F)F)cc2)CC1" ? Thanks!
6.54

Could you please provide reported pIC50 for "O=C(Nc1ccc(C(F)(F)F)cc1)N1CCN(c2cccnc2)CC1" ? Thanks!
5.30

Could you please provide reported pIC50 for "O=C(Nc1ccc(C(F)(F)F)cc1)N1CCCN(c2ncccc2C(F)(F)F)CC1" ? Thanks!
6.27

* * *

TARGET: Transient receptor potential cation channel subfamily V member 1 (Rattus norvegicus) (UniProt O35433)
Sequence (O35433 whole entry): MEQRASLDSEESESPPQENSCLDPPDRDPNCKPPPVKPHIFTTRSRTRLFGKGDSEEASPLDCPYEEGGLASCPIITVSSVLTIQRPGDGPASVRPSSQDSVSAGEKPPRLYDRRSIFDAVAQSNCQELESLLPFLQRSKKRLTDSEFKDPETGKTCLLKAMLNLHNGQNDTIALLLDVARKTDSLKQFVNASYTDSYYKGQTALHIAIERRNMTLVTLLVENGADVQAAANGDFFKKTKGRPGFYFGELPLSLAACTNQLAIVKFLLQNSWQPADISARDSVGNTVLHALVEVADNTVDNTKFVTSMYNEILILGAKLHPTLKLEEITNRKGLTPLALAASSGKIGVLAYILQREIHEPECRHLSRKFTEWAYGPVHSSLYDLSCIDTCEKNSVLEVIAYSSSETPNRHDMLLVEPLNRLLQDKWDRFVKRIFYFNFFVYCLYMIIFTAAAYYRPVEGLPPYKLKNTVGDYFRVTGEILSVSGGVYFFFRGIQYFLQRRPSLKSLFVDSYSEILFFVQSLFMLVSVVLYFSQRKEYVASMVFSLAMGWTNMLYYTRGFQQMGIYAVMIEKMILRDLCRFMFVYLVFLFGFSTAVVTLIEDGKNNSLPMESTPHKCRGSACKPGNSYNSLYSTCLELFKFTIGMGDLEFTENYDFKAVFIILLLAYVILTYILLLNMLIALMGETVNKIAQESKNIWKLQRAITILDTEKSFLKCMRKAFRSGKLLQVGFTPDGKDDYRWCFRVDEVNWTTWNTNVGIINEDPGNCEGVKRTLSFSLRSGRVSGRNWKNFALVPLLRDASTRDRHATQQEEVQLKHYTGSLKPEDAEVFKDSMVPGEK
ASSAY: Percentage efficacy against rat transient receptor potential vanilloid 1 receptor (n=3)
Threshold rule: Efficacy greater than or equal to 20% is 1; below that, 0.

State whether the measured Efficacy reaches 20%, counting equality as reaching it, for "Cc1ccccc1C1CCN(C(=O)Nc2ccc(C(F)(F)F)cc2)CC1"
1

State whether the measured Efficacy reaches 20%, counting equality as reaching it, for "O=C(Nc1cccc2ncccc12)N1CCN(c2ncccc2C(F)(F)F)CC1"
0

State whether the measured Efficacy reaches 20%, counting equality as reaching it, for "O=C(Nc1cccc2cnccc12)N1CCN(c2ncccc2C(F)(F)F)CC1"
0

State whether the measured Efficacy reaches 20%, counting equality as reaching it, for "O=C(Nc1ccc(Cl)cc1)N1CCN(c2ccncc2)CC1"
1

State whether the measured Efficacy reaches 20%, counting equality as reaching it, for "O=C(Nc1ccncc1)N1CCN(c2ncccc2C(F)(F)F)CC1"
1

State whether the measured Efficacy reaches 20%, counting equality as reaching it, for "O=C(Nc1ccc(C(F)(F)F)cc1)N1CCN(c2cccnc2)CC1"
0

* * *

TARGET: Transient receptor potential cation channel subfamily V member 1 (Homo sapiens, UniProt Q8NER1)
ASSAY: Inhibition of human transient receptor potential vanilloid 1 receptor (n=5)
ASSAY METRIC: pIC50
pIC50 is defined as minus the log10 of a concentration measured in mol/L.

Could you please provide reported pIC50 for Oc1cc2c(cc1O)CN(C(=S)NCCc1ccc(Cl)cc1)CCC2 [CAPSAZEPINE] ? Thanks!
7.13

Could you please provide reported pIC50 for "O=C(Nc1cnc2ccccc2c1)N1CCN(c2ncccc2C(F)(F)F)CC1" ? Thanks!
6.28

* * *

Give measured IC50 for each item. Keep answers brief.
TARGET: Transient receptor potential cation channel subfamily V member 1 (Homo sapiens)
ASSAY: Inhibition of human transient receptor potential vanilloid 1 receptor (n=2)
Give just the number in µM; leave the unit off.

Could you please provide reported IC50 for "O=C(Nc1ccc(C(F)(F)F)cc1)C1CCN(c2ncccc2C(F)(F)F)CC1" ? Thanks!
0.965

Could you please provide reported IC50 for "O=C(Nc1ccccn1)N1CCN(c2ncccc2C(F)(F)F)CC1" ? Thanks!
12.1

* * *

TARGET: UniProt O35433
ASSAY: Inhibition of rat transient receptor potential vanilloid 1 receptor (n=4)
ASSAY METRIC: IC50 (nM)
Give just the number in nM; leave the unit off.

Could you please provide reported IC50 for CC1CN(c2ncccc2C(F)(F)F)CCN1C(=O)Nc1ccc(C(F)(F)F)cc1 (stereo not drawn) ? Thanks!
104

Could you please provide reported IC50 for "Cc1cccnc1C1CCN(C(=O)Nc2ccc(C(F)(F)F)cc2)CC1" ? Thanks!
390

Could you please provide reported IC50 for "O=C(Nc1ccc(C(F)(F)F)cc1)N1CCN(c2ncccc2C(F)(F)F)CC1" ? Thanks!
90

* * *

TARGET: Transient receptor potential cation channel subfamily V member 1 (Homo sapiens)
ASSAY: Effective concentration against human transient receptor potential vanilloid 1 receptor (n=2)
ASSAY METRIC: EC50 (µM)
Give just the number in µM; leave the unit off.

Could you please provide reported EC50 for "Cc1ccccc1C1CCN(C(=O)Nc2ccc(C(F)(F)F)cc2)CC1" ? Thanks!
1.93

* * *

Give measured log10 IC50 for each item. Keep answers brief.
TARGET: Transient receptor potential cation channel subfamily V member 1 (Rattus norvegicus)
Sequence (O35433 whole entry): as above
ASSAY: Inhibition of rat transient receptor potential vanilloid 1 receptor (n=2)
Quick note: numbers are log10 of IC50, with nM as the unit.

Could you please provide reported log10 IC50 for Oc1cc2c(cc1O)CN(C(=S)NCCc1ccc(Cl)cc1)CCC2 [CAPSAZEPINE] ? Thanks!
2.56

Could you please provide reported log10 IC50 for "O=C(Nc1ccc2ncccc2c1)N1CCN(c2ncccc2C(F)(F)F)CC1" ? Thanks!
3.60

Could you please provide reported log10 IC50 for "O=C(Nc1ccc(C(F)(F)F)cc1)N1CCCN(c2ncccc2C(F)(F)F)CC1" ? Thanks!
3.07

Could you please provide reported log10 IC50 for "O=C(Nc1cc2ccccc2cn1)N1CCN(c2ncccc2C(F)(F)F)CC1" ? Thanks!
3.00

Could you please provide reported log10 IC50 for "O=C(Nc1ccc(C(F)(F)F)cc1)NC1CCN(c2ncccc2C(F)(F)F)CC1" ? Thanks!
3.64
